Provenance of the data: ChEMBL document CHEMBL4400519

- test-target: Cannabinoid receptor (Mus musculus) (UniProt P47746+P47936)
- Sequence (P47746 whole entry, looked up): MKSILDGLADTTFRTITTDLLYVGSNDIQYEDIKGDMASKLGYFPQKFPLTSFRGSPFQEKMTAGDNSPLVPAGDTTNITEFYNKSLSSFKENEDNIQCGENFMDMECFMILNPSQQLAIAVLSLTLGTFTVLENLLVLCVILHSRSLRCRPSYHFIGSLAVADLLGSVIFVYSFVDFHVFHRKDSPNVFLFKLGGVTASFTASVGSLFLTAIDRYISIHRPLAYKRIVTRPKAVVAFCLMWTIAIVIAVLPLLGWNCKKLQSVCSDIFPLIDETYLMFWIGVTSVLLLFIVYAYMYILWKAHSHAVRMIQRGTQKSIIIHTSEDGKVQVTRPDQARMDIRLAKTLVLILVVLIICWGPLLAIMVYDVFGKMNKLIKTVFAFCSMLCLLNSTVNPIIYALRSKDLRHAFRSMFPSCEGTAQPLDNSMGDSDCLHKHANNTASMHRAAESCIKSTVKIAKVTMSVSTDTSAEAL
- Sequence (P47936 whole entry, looked up): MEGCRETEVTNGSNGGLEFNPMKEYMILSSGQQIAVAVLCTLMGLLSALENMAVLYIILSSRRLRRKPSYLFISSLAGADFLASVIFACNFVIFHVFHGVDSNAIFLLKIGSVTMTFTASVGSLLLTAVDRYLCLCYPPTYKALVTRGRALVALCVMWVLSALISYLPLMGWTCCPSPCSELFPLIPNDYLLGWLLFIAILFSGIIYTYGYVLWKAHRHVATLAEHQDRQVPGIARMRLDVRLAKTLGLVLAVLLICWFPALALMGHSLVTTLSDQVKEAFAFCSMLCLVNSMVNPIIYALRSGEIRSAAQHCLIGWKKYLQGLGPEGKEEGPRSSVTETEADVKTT
- measurement-protocol: Agonist activity at cannabinoid receptor in ICR mouse vas deferens assessed as inhibition of electrically induced contractions at 3 x 10^-7 M after 10 mins in presence of CB1 antagonist AM251 relative to control
- Type: protein assay
readout-label: inhibition (%)
Report the value in % with no unit label.

INSERT INTO measurements (structure_smiles_string, uom, observed_result) VALUES
  ('O=C(c1ccccc1Cl)n1nc(OCCCN2CCCCC2)c2ccccc21', '%', -0.4);

q: Recall the recorded inhibition for O=C(c1ccccc1OCc1ccccc1)n1nc(OCCCN2CCCCC2)c2ccccc21 with Cannabinoid receptor (Mus musculus) (UniProt P47746+P47936) and state it.
a: -6.8

q: Please answer likewise for O=C(c1cccc(F)c1F)n1nc(OCCN2CCCC2)c2ccccc21
a: -1.2

====

- test-target: Cannabinoid receptor (Mus musculus) (UniProt P47746+P47936)
- measurement-protocol: Agonist activity at cannabinoid receptor in ICR mouse vas deferens assessed as inhibition of electrically induced contractions at 8.1 x 10^-6 M after 10 mins in presence of CB1 antagonist AM251 relative to control
- Type: protein assay
# inhibition per entry
Lab note: write values as number then unit, every time.

Below: 5 molecules and their reported inhibition.
INSERT INTO measurements (structure_smiles_string, readout_label, observed_result) VALUES
  ('O=C(c1cccc(F)c1F)n1nc(OCCN2CCCC2)c2ccccc21', 'inhibition', '23.3%'),
  ('O=C(c1cccc2ccccc12)n1nc(OCCCN2CCCC2)c2ccccc21', 'inhibition', '57.9%'),
  ('O=C(c1ccccc1Cl)n1nc(OCCCN2CCCCC2)c2ccccc21', 'inhibition', '51.5%'),
  ('Cc1c(C(=O)c2cccc3ccccc23)c2cccc3c2n1[C@H](CN1CCOCC1)CO3', 'inhibition', '31.9%'),
  ('Cc1c(C(=O)NN2CCCCC2)nn(-c2ccc(Cl)cc2Cl)c1-c1ccc(I)cc1', 'inhibition', '72.7%');

q: I am curious: what inhibition value has been reported for O=C(c1cccc(Cl)c1Cl)n1nc(OCCCN2CCCCC2)c2ccccc21 ?
a: 65.3%

====

pIC50: −log10 of the molar value.
Observed pIC50 values for Acetylcholinesterase (Homo sapiens, UniProt P22303) are listed in what follows.

INSERT INTO measurements (structure_smiles_string, readout_label, observed_result) VALUES
  ('COc1ccc(CC(=O)n2nc(OCCCN3CCCCC3)c3ccccc32)cc1', 'pIC50', '< 5.00');

q: I am curious: what pIC50 value has been reported for O=C(c1cccc(Cl)c1Cl)n1nc(OCCCN2CCCCC2)c2ccccc21 ?
a: 4.77

q: Please answer likewise for O=C(c1ccc2ccccc2c1)n1nc(OCCCN2CCCCC2)c2ccccc21
a: < 5.00

q: Please answer likewise for O=C(c1ccccc1OCc1ccccc1)n1nc(OCCN2CCCC2)c2ccccc21
a: < 5.00

q: Please answer likewise for O=C(c1ccc2ccccc2c1)n1nc(OCCN2CCCCC2)c2ccccc21
a: < 5.00

====

- test-target: Cannabinoid receptor (Mus musculus) (UniProt P47746+P47936)
- measurement-protocol: Agonist activity at cannabinoid receptor in ICR mouse vas deferens assessed as inhibition of electrically induced contractions at 1.82 x 10^-5 M after 10 mins relative to control
- Assay type: protein assay
Kind request: treat 80% as inclusive, so inhibition at 80% or higher is condition met, anything lower is condition not met.

Example entries and their recorded answers appear below.
INSERT INTO results (structure_smiles_string, test_target, assigned_category) VALUES
  ('O=C(c1ccccc1Cl)n1nc(OCCN2CCCC2)c2ccccc21', 'Cannabinoid receptor (Mus musculus) (UniProt P47746+P47936)', 'condition not met'),
  ('COc1ccc(COc2nn(CCN(C(C)C)C(C)C)c3ccccc23)cc1', 'Cannabinoid receptor (Mus musculus) (UniProt P47746+P47936)', 'condition met'),
  ('COc1ccc(CC(=O)n2nc(OCCN3CCCC3)c3ccccc32)cc1', 'Cannabinoid receptor (Mus musculus) (UniProt P47746+P47936)', 'condition not met'),
  ('O=C(c1ccccc1OCc1ccccc1)n1nc(OCCCN2CCCCC2)c2ccccc21', 'Cannabinoid receptor (Mus musculus) (UniProt P47746+P47936)', 'condition met'),
  ('O=C(c1ccc2ccccc2c1)n1nc(OCCCN2CCCCC2)c2ccccc21', 'Cannabinoid receptor (Mus musculus) (UniProt P47746+P47936)', 'condition not met');

q: Determine whether this compound has inhibition no lower than 80%: O=C(c1cccc(F)c1F)n1nc(OCCN2CCCC2)c2ccccc21
a: condition not met

q: Please answer likewise for O=C(c1cccc2ccccc12)n1nc(OCCCN2CCCC2)c2ccccc21
a: condition met

q: Please answer likewise for O=C(c1cccc2ccccc12)n1nc(OCCN2CCCCC2)c2ccccc21
a: condition met

q: Please answer likewise for O=C(c1ccccc1OCc1ccccc1)n1nc(OCCN2CCCC2)c2ccccc21
a: condition not met

q: Please answer likewise for O=C(c1c(F)ccc(F)c1F)n1nc(OCCN2CCCCC2)c2ccccc21
a: condition not met

q: Please answer likewise for O=C(c1cccc2ccccc12)n1nc(OCCCN2CCCCC2)c2ccccc21
a: condition not met

q: Please answer likewise for COc1ccc(CC(=O)n2nc(OCCCN3CCCCC3)c3ccccc32)cc1
a: condition met

q: Please answer likewise for O=C(c1ccc2ccccc2c1)n1nc(OCCN2CCCCC2)c2ccccc21
a: condition not met

====

- test-target: Cannabinoid receptor (Mus musculus) (UniProt P47746+P47936)
- measurement-protocol: Agonist activity at cannabinoid receptor in ICR mouse vas deferens assessed as inhibition of electrically induced contractions at 9 x 10^-7 M after 10 mins relative to control
- Assay type: protein assay
# inhibition per entry
Report the value in % with no unit label.

Below: 4 compounds and their reported inhibition.
INSERT INTO measurements (structure_smiles_string, uom, observed_result) VALUES
  ('O=C(c1ccc2ccccc2c1)n1nc(OCCN2CCCCC2)c2ccccc21', '%', -3.5),
  ('COc1cc(C(=O)n2nc(OCCN3CCCC3)c3ccccc32)cc(OC)c1OC', '%', 14.6),
  ('O=C(c1ccccc1Cl)n1nc(OCCN2CCCC2)c2ccccc21', '%', 10.8),
  ('Cc1cc(C)c(C(=O)n2nc(OCCN3CCCCC3)c3ccccc32)c(C)c1', '%', 6.5);

q: I am curious: what inhibition value has been reported for O=C(c1c(F)ccc(F)c1F)n1nc(OCCN2CCCCC2)c2ccccc21 ?
a: 20.8

====

- test-target: Cannabinoid receptor (Mus musculus) (UniProt P47746+P47936)
- measurement-protocol: Agonist activity at cannabinoid receptor in ICR mouse vas deferens assessed as inhibition of electrically induced contractions at 2.7 x 10^-6 M after 10 mins relative to control
- Type: protein assay
readout-label: inhibition (%)
Report the value in % with no unit label.

Below: 5 molecules and their reported inhibition.
INSERT INTO measurements (structure_smiles_string, uom, observed_result) VALUES
  ('COc1ccc(CC(=O)n2nc(OCCN3CCCC3)c3ccccc32)cc1', '%', 23.4),
  ('COc1ccc(COc2nn(CCN(C(C)C)C(C)C)c3ccccc23)cc1', '%', 43.1),
  ('O=C(c1ccccc1OCc1ccccc1)n1nc(OCCN2CCCC2)c2ccccc21', '%', 10.4),
  ('O=C(c1cccc(Cl)c1Cl)n1nc(OCCCN2CCCCC2)c2ccccc21', '%', 27.4),
  ('O=C(c1cccc(Cl)c1Cl)n1nc(OCCN2CCCC2)c2ccccc21', '%', 27.8);

Now let's try a different one.
q: Recall the recorded inhibition for O=C(c1ccc2ccccc2c1)n1nc(OCCN2CCCCC2)c2ccccc21 with Cannabinoid receptor (Mus musculus) (UniProt P47746+P47936) and state it.
a: -2.8

====

- test-target: Cannabinoid receptor (Mus musculus) (UniProt P47746+P47936)
- measurement-protocol: Agonist activity at cannabinoid receptor in ICR mouse vas deferens assessed as inhibition of electrically induced contractions at 2.7 x 10^-6 M after 10 mins in presence of CB2 antagonist AM630 relative to control
- Type: protein assay
# inhibition per entry
Report the value in % with no unit label.

Below: 2 compounds and their reported inhibition.
INSERT INTO assay_data (structure_smiles_string, test_target, observed_result) VALUES
  ('O=C(c1cccc(Cl)c1Cl)n1nc(OCCN2CCCC2)c2ccccc21', 'Cannabinoid receptor (Mus musculus) (UniProt P47746+P47936)', 14.2),
  ('COc1cc(C(=O)n2nc(OCCN3CCCC3)c3ccccc32)cc(OC)c1OC', 'Cannabinoid receptor (Mus musculus) (UniProt P47746+P47936)', 10.9);

q: I am curious: what inhibition value has been reported for O=C(c1ccccc1Cl)n1nc(OCCN2CCCC2)c2ccccc21 ?
a: 8.8

q: Please answer likewise for COc1ccc(CC(=O)n2nc(OCCN3CCCC3)c3ccccc32)cc1
a: 14

q: Please answer likewise for O=C(c1ccccc1OCc1ccccc1)n1nc(OCCN2CCCC2)c2ccccc21
a: 10.3

q: Please answer likewise for O=C(c1cccc(Cl)c1Cl)n1nc(OCCN2CCCCC2)c2ccccc21
a: 8.6

q: Please answer likewise for O=C(c1ccc2ccccc2c1)n1nc(OCCCN2CCCCC2)c2ccccc21
a: -9.7
